Each entry below carries its reported remaining at 1 h, 3 μM.
Protocol: Microsomal stability, human liver microsomes
Format: in vitro ADME
Settings: human, liver microsomes

Field: example entries. Status: answers known.
COc1cc(OCCCCCCCCn2ccnc2)ccc1NC(=N)c1ccccn1 [Compound 24a]: > 80%
CC(C)Oc1cc(NC(=N)c2ccccn2)ccc1OCCCCCCCCn1ccnc1 [Compound 17c]: > 80%

Short answer for CCOc1cc(OCCCCCCCCn2ccnc2)ccc1NC(=N)c1ccccn1 [Compound 24b] : remaining at 1 h, 3 μM was > 80%

---

Tested on: HepG2 cells
Protocol: HepG2 toxicity assay
Type: cell-based
Settings: Homo sapiens, HepG2, 72 h, read-out: IC50 against HepG2
Measure Name: IC50

See these solved cases before continuing.
N=C(Nc1ccc(OCCCCn2ccnc2)cc1)c1ccccn1 [Compound 9d]: > 20 µM
N=C(NCCCCCCCCn1ccnc1)c1ccccn1 [Compound 28]: > 100 µM
N=C(Nc1ccc(OCCn2ccnc2)cc1)c1ccccn1 [Compound 9a]: > 50 µM
N=C(Nc1ccc(OCCn2cncn2)cc1)c1ccccn1 [Compound 9b]: > 100 µM

Please find the next compound below.
Known value: HepG2 cells IC50 of the compound N=C(Nc1ccc(OCCCCn2cncn2)cc1)c1ccccn1 [Compound 9e] equals > 100 µM
